# Measured target: 5-hydroxytryptamine receptor 7 (Rattus norvegicus)
# Assay overview: Binding affinity to 5HT7 receptor in Sprague-Dawley rat hippocampus at 1 uCi/ml after 20 mins by semi-quantitative autoradiography in presence of 10 to 100 nM of 5HT7 receptor antagonist SB269970
# Type: tissue-based
# Condition details: tested as the 18F-labelled form
Calls of active or inactive are those of the source. No cut-off for these calls is given here.
One label from this list, please: active, inactive

Compound string | Group
CC1CCN(CC[C@H]2CCCN2S(=O)(=O)c2ccccc2F)CC1 | inactive

In: What outcome does the record of this test show for `COc1ccccc1N1CCN(CC[C@H]2CCCN2S(=O)(=O)c2ccccc2F)CC1` ?
Out: active

In: What outcome does the record of this test show for `CC1CCN(CC[C@H]2CCCN2S(=O)(=O)c2ccc(F)cc2)CC1` ?
Out: inactive

In: What outcome does the record of this test show for `COc1ccccc1N1CCN(CC[C@H]2CCCN2S(=O)(=O)c2ccc(F)cc2)CC1` ?
Out: active
